# MEASUREMENT NOTES: S. cerevisiae RM11-1a growth modifiers, primary screen, strain RM11-1a, OD600, basal, 24 h (AID 1177);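 further: cultures grown under basal conditions with no added stressor; test concentration not given here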
# ASSAY CONDITIONS: OD600, 24 h, higher = more signal, called active from +8 up or from −8 down
Activity calls are given as the source filed them.
compounds and their reported z-score

>>> reported_measurement("CN1C(=O)C2C=CC(C(O)C3CC=CCC3)N(N(c3ccccc3)c3ccccc3)C2C1=O (centres undefined)")
"0.595 (inactive)"
>>> reported_measurement("C=CCC(OC(C)=O)[C@@H]1[C@@H](N(Cc2cccc3ccccc23)C(=O)c2ccc(-c3ccccc3)cc2)c2cc(OCCCO)ccc2N1C(=O)c1ccc2ccccc2c1 (some centres undefined)")
"0.132 (inactive)"
>>> reported_measurement("C=CCNC(=O)[C@@H]1[C@H]2C(=O)O[C@H](c3ccccc3)[C@H](c3ccccc3)N2[C@H](c2ccc(OCCO)cc2)[C@@]12C(=O)Nc1ccc(C#CCC(C(=O)OC)C(=O)OC)cc12")
"2.26 (inactive)"

Now consider the entry below.
Enquiry: For [N-]=[N+]=NCc1ccccc1[C@@H]1OC(c2ccc(OCCCO)cc2)=N[C@]1(Cc1ccccc1)C(N)=O , what is its reported z-score?
Return: 0.895 (inactive)
